Hello, the source for this data is patent US6346529B1, in case you need it.

# Protocol summary: PBM cell proliferation (cytotoxicity) assay
# Type: cell-based
# Condition description: human
Metric: IC50 at 6 days

What IC50 at 6 days value was documented for this compound, Nc1nc2c(ncn2COCCO)c(=O)[nH]1 ?
> 100 µM

====

# Test system: HSV-2 (G strain)
# Protocol summary: HSV plaque reduction assay in Vero cells, HSV-2
# Format: cell-based
# Condition description: read-out: Antiviral Effect: EC50 HSV-2; dark
Metric: EC50

GET /values?readout=EC50&item= CN(C)c1ccc2nc3ccc(N(C)C)cc3[s+]c2c1.[Cl-]
≥ 10 µM

====

# System: HSV-2 (G strain)
# Protocol summary: HSV plaque reduction assay in Vero cells, HSV-2
# Format: cell-based
# Condition description: Human alphaherpesvirus 2, Vero, light; read-out: Antiviral Effect: EC50 HSV-2
Metric: EC50 (nM)
Write it as a number; the unit nM goes unstated.

Could you share which EC50 value was measured for Nc1nc2c(ncn2COCCO)c(=O)[nH]1 [ACV, Acyclovir] ?
510

====

# Test system: HSV-1 (F strain)
# Protocol summary: HSV plaque reduction assay in Vero cells, HSV-1
# Type: cell-based
# Condition description: Human alphaherpesvirus 1, Vero, light/dark not stated; read-out: Antiviral Effect: EC50 HSV-1
pEC50: −log10 of the molar value.
Metric: pEC50

Give the measured pEC50 of Cc1cn([C@H]2C[C@H](N=[N+]=[N-])[C@@H](CO)O2)c(=O)[nH]c1=O .
< 4.00

====

# Target under test: HIV-1 reverse transcriptase (RT) (Human immunodeficiency virus type 1 group M subtype B, UniProt P03367)
# Construct: HIV reverse transcriptase (RT); endogenous in cells; host or cells: HIV-1-infected PHA-stimulated human PBM cells
# Protocol summary: HIV-1 reverse transcriptase enzyme assay
# Format: biochemical
# Condition description: Light
Metric: pIC50
Formally, pIC50 is defined as -log10 of the concentration c, with c in mol/L.

Item under review: CN(C)c1ccc2nc3ccc(N(C)C)cc3[s+]c2c1.[Cl-] . Reported pIC50?
5.04

====

# Test system: HSV-1 (F strain)
# Protocol summary: HSV plaque reduction assay in Vero cells, HSV-1
# Type: cell-based
# Condition description: Human alphaherpesvirus 1, Vero, read-out: Antiviral Effect: EC50 HSV-1
pEC50: −log10 of the molar value.
Metric: pEC50

Returns the measured pEC50 for the input compound. Input: CN(C)c1ccc2nc3ccc(N(C)C)cc3[s+]c2c1.[Cl-]
≤ 5.00

====

# System: HIV-1 (strain LAV-1)
# Protocol summary: Inhibition of HIV-1 replication in human PBMC (supernatant RT activity)
# Format: cell-based
# Condition description: Human immunodeficiency virus 1, PBMC, read-out: Antiviral Effect: EC50 HIV-1, light
Metric: EC50 (µM)
Your answer should be a plain number; it is taken to be in µM.

I would be grateful if you could share the reported EC50 for CN(C)c1ccc2nc3ccc(N(C)C)cc3[s+]c2c1.[Cl-] .
0.028

====

# Target under test: calf thymus DNA polymerase alpha (CT α pol) (Bos taurus)
# Construct: calf thymus DNA polymerase alpha (CT α pol); from tissue; host or cells: calf thymus
# Sequence (A0AAA9TD94 entry or part of it): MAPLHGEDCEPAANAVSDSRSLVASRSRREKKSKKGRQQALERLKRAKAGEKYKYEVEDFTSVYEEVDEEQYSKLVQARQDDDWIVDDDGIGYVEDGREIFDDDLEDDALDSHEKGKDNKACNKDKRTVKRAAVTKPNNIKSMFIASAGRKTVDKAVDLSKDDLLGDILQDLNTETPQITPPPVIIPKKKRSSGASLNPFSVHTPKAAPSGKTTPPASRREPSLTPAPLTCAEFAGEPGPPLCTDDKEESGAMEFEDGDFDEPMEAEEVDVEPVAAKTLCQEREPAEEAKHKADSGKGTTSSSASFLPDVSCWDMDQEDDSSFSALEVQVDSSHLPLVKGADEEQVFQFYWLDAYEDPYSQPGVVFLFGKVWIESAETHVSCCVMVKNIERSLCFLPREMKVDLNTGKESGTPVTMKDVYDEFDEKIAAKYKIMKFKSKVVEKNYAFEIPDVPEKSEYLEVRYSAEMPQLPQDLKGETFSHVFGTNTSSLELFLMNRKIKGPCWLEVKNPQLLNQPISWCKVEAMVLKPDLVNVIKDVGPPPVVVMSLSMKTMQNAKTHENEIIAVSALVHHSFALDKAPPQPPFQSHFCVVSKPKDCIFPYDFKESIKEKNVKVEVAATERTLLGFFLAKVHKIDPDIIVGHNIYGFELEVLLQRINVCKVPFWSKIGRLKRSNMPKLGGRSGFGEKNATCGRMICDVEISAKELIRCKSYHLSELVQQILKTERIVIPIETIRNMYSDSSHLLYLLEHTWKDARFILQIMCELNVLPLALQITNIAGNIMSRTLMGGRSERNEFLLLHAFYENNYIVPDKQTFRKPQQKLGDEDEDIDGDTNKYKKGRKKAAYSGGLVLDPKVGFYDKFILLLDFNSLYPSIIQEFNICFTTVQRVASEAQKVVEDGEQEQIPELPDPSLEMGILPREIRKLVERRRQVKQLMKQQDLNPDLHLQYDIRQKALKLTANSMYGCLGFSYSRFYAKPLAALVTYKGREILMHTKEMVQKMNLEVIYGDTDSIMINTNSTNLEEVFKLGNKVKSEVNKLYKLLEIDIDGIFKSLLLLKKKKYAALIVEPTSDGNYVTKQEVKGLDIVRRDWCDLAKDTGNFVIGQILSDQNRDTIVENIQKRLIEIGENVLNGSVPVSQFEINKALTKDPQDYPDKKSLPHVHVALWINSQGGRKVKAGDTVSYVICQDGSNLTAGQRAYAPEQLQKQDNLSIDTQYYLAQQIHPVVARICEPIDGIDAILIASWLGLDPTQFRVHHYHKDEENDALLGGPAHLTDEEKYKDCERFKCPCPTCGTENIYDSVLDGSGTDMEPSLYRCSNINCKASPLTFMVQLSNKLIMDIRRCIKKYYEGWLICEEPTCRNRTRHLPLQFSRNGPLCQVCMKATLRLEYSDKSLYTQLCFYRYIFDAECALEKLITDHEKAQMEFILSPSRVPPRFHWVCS
# Protocol summary: DNA polymerase alpha enzyme assay
# Type: biochemical
# Condition description: Light
# Text: Enzyme Assays: The preparation of the enzyme and the assay conditions used, were recently described by Schinazi, et al., Antimicrob. Agents Chemother. 33, 115-117 (1989). […] Median-Effect Method: EC50 and IC50 values were obtained by analysis of the data using the median-effect equation (Chou, T., et al., “Quantitative Analysis of Dose-Effect Relationships: The Combined Effects of Multiple Drugs or Enzyme Inhibitors,” Adv. Enz. Regul. 22, 27-55 (1984). […]
Metric: IC50 (µM)
API: value field is a number in µM; no unit string.

# IC50 lookup, item CN(C)c1ccc2nc3ccc(N(C)C)cc3[s+]c2c1.[Cl-]
125
